System: S. aureus RN450
Protocol details: In Vitro Anti-Bacterial Activity Assay (MIC), gram positive
Format: cell-based
Condition notes: Staphylococcus aureus, RN450, 18 h, gram positive bacteria; read-out: Antibiotic Activity Gram + (MIC)
Answer each item with its documented MIC.

Molecule | Test system | MIC
CN(C)c1cc(C#CCNS(C)(=O)=O)c(O)c2c1C[C@H]1C[C@H]3[C@H](N(C)C)C(O)=C(C(N)=O)C(=O)[C@@]3(O)C(O)=C1C2=O | S. aureus RN450 | > 4 µg/mL
CN(C)[C@@H]1C(O)=C(C(N)=O)C(=O)[C@@]2(O)C(O)=C3C(=O)c4c(O)ccc(-c5ccncc5F)c4C[C@H]3C[C@@H]12 | S. aureus RN450 | < 4 µg/mL
CN(C)[C@@H]1C(OCc2ccccc2)=C(C(N)=O)C(=O)[C@@]2(O)C(O)=C3C(=O)c4c(O)ccc(I)c4C[C@H]3C[C@@H]12 | S. aureus RN450 | < 4 µg/mL
C[C@H]1c2ccc(-c3ccc(C=O)cc3)c(O)c2C(=O)C2=C(O)[C@]3(O)C(=O)C(C(N)=O)=C(O)[C@@H](N(C)C)[C@@H]3[C@@H](O)[C@@H]21 | S. aureus RN450 | < 4 µg/mL
CN1CCC(NCc2cc(N(C)C)c3c(c2O)C(=O)C2=C(O)[C@]4(O)C(=O)C(C(N)=O)=C(O)[C@@H](N(C)C)[C@@H]4C[C@@H]2C3)CC1 | S. aureus RN450 | > 4 µg/mL

Could you now look at the following molecule, please?
// assay S. aureus RN450, entry COCC(C)CN(C)Cc1cc(N(C)C)c2c(c1O)C(=O)C1=C(O)[C@]3(O)C(=O)C(C(N)=O)=C(O)[C@@H](N(C)C)[C@@H]3C[C@@H]1C2 (stereo partly drawn) , MIC value = < 4 µg/mL

---

Kindly supply the reported MIC values for the records listed here.
Tested on: E. coli mL308 225
Protocol details: In Vitro Anti-Bacterial Activity Assay (MIC), gram negative
Assay type: cell-based
Condition notes: Escherichia coli, ML308225, 18 h, gram negative bacteria; read-out: Antibiotic Activity Gram − (MIC)

Smiles code | MIC
CCc1cc(N)c(O)c2c1C[C@H]1C[C@H]3[C@H](N(C)C)C(O)=C(C(N)=O)C(=O)[C@@]3(O)C(O)=C1C2=O | < 4 µg/mL

Please state, for each entry, its recorded MIC.
1. C[C@H]1c2c(Br)ccc(O)c2C(=O)C2=C(O)[C@]3(O)C(=O)C(C(N)=O)=C(O)[C@@H](N(C)C)[C@@H]3[C@@H](O)[C@@H]21
2. CC(=O)CCC(=O)Nc1ccc2c(c1O)C(=O)C1=C(O)[C@]3(O)C(=O)C(C(N)=O)=C(O)[C@@H](N(C)C)[C@@H]3C[C@@H]1C2

Resp:
> 4 µg/mL
> 4 µg/mL

---

Test system: S. aureus RN450
Protocol details: In Vitro Anti-Bacterial Activity Assay (MIC), gram positive
Format: cell-based
Condition notes: Staphylococcus aureus, RN450, 18 h, gram positive bacteria; read-out: Antibiotic Activity Gram + (MIC)
Measurement label: MIC

Consider the worked cases shown below.
Smiles code | Test system | MIC
CN(C)[C@@H]1C(O)=C(C(N)=O)C(=O)[C@@]2(O)C(O)=C3C(=O)c4c(O)ccc(-c5ccc(/C=N/CC#N)cc5)c4C[C@H]3C[C@@H]12 | S. aureus RN450 | < 4 µg/mL
CN(C)c1cc(NCc2ccccc2C[C@H]2O[C@@H](CO)[C@@H](O)[C@@H](O)[C@H]2O)c(O)c2c1C[C@H]1C[C@H]3[C@H](N(C)C)C(O)=C(C(N)=O)C(=O)[C@@]3(O)C(O)=C1C2=O | S. aureus RN450 | > 4 µg/mL

For the next question, use this compound.
What the record says about CN(C)[C@@H]1C(O)=C(C(N)=O)C(=O)[C@@]2(O)C(O)=C3C(=O)c4c(O)c(C(C)(C)C)cc(-c5cnc6ccccc6c5)c4C[C@H]3C[C@@H]12 : MIC is > 4 µg/mL

---

System: E. coli mL308 225
Protocol details: In Vitro Anti-Bacterial Activity Assay (MIC), gram negative
Format: cell-based
Condition notes: Escherichia coli, ML308225, 18 h, gram negative bacteria; read-out: Antibiotic Activity Gram − (MIC)
Measurement label: MIC

Compound | Test system | MIC
C[C@H]1c2ccc(CN3CCC(F)(F)CC3)c(O)c2C(=O)C2=C(O)[C@]3(O)C(=O)C(C(N)=O)=C(O)[C@@H](N(C)C)[C@@H]3[C@@H](O)[C@@H]21 | E. coli mL308 225 | < 4 µg/mL

Go through the list and state MIC for each entry.
1. CN1CCC(NCc2cc(N(C)C)c3c(c2O)C(=O)C2=C(O)[C@]4(O)C(=O)C(C(N)=O)=C(O)[C@@H](N(C)C)[C@@H]4C[C@@H]2C3)CC1
2. CCCCOc1cccc2c1C(=O)C1=C(O)[C@]3(O)C(=O)C(C(N)=O)=C(O)[C@@H](N(C)C)[C@@H]3C[C@@H]1C2
3. CC(=O)Cc1cc(N(C)C)c2c(c1O)C(=O)C1=C(O)[C@]3(O)C(=O)C(C(N)=O)=C(O)[C@@H](N(C)C)[C@@H]3C[C@@H]1C2
4. CN(C)c1cc(CN(Cc2ccccc2)CC(F)(F)F)c(O)c2c1C[C@H]1C[C@H]3[C@H](N(C)C)C(O)=C(C(N)=O)C(=O)[C@@]3(O)C(O)=C1C2=O

Resp:
1: > 4 µg/mL; 2: > 4 µg/mL; 3: > 4 µg/mL; 4: > 4 µg/mL

Lab note: each compound below needs its MIC filled in.
1. CC(=O)Nc1ccc2c(c1O)C(=O)C1=C(O)[C@]3(O)C(=O)C(C(N)=O)=C(O)[C@@H](N(C)C)[C@@H]3C[C@@H]1C2
2. CN(C)c1cc(NCc2ccc([N+](=O)[O-])o2)c(O)c2c1C[C@H]1C[C@H]3[C@H](N(C)C)C(O)=C(C(N)=O)C(=O)[C@@]3(O)C(O)=C1C2=O

Resp:
["> 4 µg/mL", "> 4 µg/mL"]

---

Test system: E. coli mL308 225
Protocol details: In Vitro Anti-Bacterial Activity Assay (MIC), gram negative
Format: cell-based
Condition notes: Escherichia coli, ML308225, 18 h, gram negative bacteria; read-out: Antibiotic Activity Gram − (MIC)
Measurement label: MIC

Solved cases (5 shown):
Compound | Value reported
CCOC(=O)/C=C/c1cc(N(C)C)c2c(c1O)C(=O)C1=C(O)[C@]3(O)C(=O)C(C(N)=O)=C(O)[C@@H](N(C)C)[C@@H]3C[C@@H]1C2 | > 4 µg/mL
CN(C)CCN(C)Cc1ccc(-c2cc(N(C)C)c3c(c2O)C(=O)C2=C(O)[C@]4(O)C(=O)C(C(N)=O)=C(O)[C@@H](N(C)C)[C@@H]4C[C@@H]2C3)[nH]1 | > 4 µg/mL
COCC(C)CN(C)Cc1cc(N(C)C)c2c(c1O)C(=O)C1=C(O)[C@]3(O)C(=O)C(C(N)=O)=C(O)[C@@H](N(C)C)[C@@H]3C[C@@H]1C2 (some centres unmarked) | > 4 µg/mL
CN(C)[C@@H]1C(O)=C(C(N)=O)C(=O)[C@@]2(O)C(O)=C3C(=O)c4c(O)c(N)cc(-c5ccccn5)c4C[C@H]3C[C@@H]12 | > 4 µg/mL
CN(C)c1ccc(-c2cc(C(C)(C)C)c(O)c3c2C[C@H]2C[C@H]4[C@H](N(C)C)C(O)=C(C(N)=O)C(=O)[C@@]4(O)C(O)=C2C3=O)cc1 | > 4 µg/mL

Hi team, please reply with MIC for each item in this list.
1. CC(C)COC(=O)NCc1ccc(-c2ccc(O)c3c2C[C@H]2C[C@H]4[C@H](N(C)C)C(O)=C(C(N)=O)C(=O)[C@@]4(O)C(O)=C2C3=O)cc1
2. CC(C)ONC(C)c1ccc(O)c2c1C[C@H]1C[C@H]3[C@H](N(C)C)C(O)=C(C(N)=O)C(=O)[C@@]3(O)C(O)=C1C2=O (some centres unmarked)
3. CCC1(C)CCN(Cc2cc(N(C)C)c3c(c2O)C(=O)C2=C(O)[C@]4(O)C(=O)C(C(N)=O)=C(O)[C@@H](N(C)C)[C@@H]4C[C@@H]2C3)CC1
4. COC(=O)CCC(=O)Nc1ccc(-c2ccc(O)c3c2C[C@H]2C[C@H]4[C@H](N(C)C)C(O)=C(C(N)=O)C(=O)[C@@]4(O)C(O)=C2C3=O)cc1
5. CN(C)[C@@H]1C(O)=C(C(N)=O)C(=O)[C@@]2(O)C(O)=C3C(=O)c4c(O)c(CNC(=O)C5CC5)cc(-c5ccc(C(C)(C)C)cc5)c4C[C@H]3C[C@@H]12

Resp:
1: > 4 µg/mL; 2: < 4 µg/mL; 3: < 4 µg/mL; 4: > 4 µg/mL; 5: < 4 µg/mL

The measured MIC associated with Cc1cnc(N)n1Cc1cc(N(C)C)c2c(c1O)C(=O)C1=C(O)[C@]3(O)C(=O)C(C(N)=O)=C(O)[C@@H](N(C)C)[C@@H]3C[C@@H]1C2 [drawing 3711] reads > 4 µg/mL
